The reported numbers originate from paper PMC8886374.

# AUC annotations
# test.protocol: In vivo pharmacokinetic study, i.v., ICR mice
# Design: species or system mouse
# test.conditions: mouse, in vivo, iv; intact conjugate, 0–24 h, male ICR mice, i.v. 5 mg/kg; read-out: AUCconjugate
measure: AUC (ng·h/mL)

compound: CCc1c2c(nc3ccc(OC(=O)c4ccc(CN(CCOCCOCCn5nnc6c5CC[C@H]5[C@@H](CC6)[C@@H]5COC(=O)N(C)CCCC(=O)N(CCCCOc5cc(CN(Cc6ccccn6)Cc6ccccn6)cc(CN(Cc6ccccn6)Cc6ccccn6)c5)C5(C(=O)NC(C)(C)C)CCOCC5)C(=O)C5(c6ccc(Cl)cc6)CCCCC5)cc4)cc13)-c1cc3c(c(=O)n1C2)COC(=O)[C@]3(O)CC [conjugate 5]
readout.number: 1590
//
compound: CCc1c2c(nc3ccc(OC(=O)c4ccc(CN(CCOCCOCCn5nnc6c5CC[C@H]5[C@@H](CC6)[C@@H]5COC(=O)N5CCC(C(=O)N(CCCCOc6cc(CN(Cc7ccccn7)Cc7ccccn7)cc(CN(Cc7ccccn7)Cc7ccccn7)c6)C6(C(=O)NC(C)(C)C)CCOCC6)CC5)C(=O)C5(c6ccc(Cl)cc6)CCCCC5)cc4)cc13)-c1cc3c(c(=O)n1C2)COC(=O)[C@]3(O)CC [conjugate 6]
readout.number: 6460
//
compound: C/C=C/C(=O)N(CCCCOc1cc(CN(Cc2ccccn2)Cc2ccccn2)cc(CN(Cc2ccccn2)Cc2ccccn2)c1)C1(C(=O)NC(C)(C)C)CCN(C(=O)OC[C@H]2[C@@H]3CCc4nnn(CCOCCOCCN(Cc5ccc(C(=O)Oc6ccc7nc8c(c(CC)c7c6)Cn6c-8cc7c(c6=O)COC(=O)[C@]7(O)CC)cc5)C(=O)C5(c6ccc(Cl)cc6)CCCCC5)c4CC[C@@H]32)CC1 [conjugate 7]
readout.number: 20700
//
compound: CCOP(=O)(CNC(=O)C1(N(CCCCOc2cc(CN(Cc3ccccn3)Cc3ccccn3)cc(CN(Cc3ccccn3)Cc3ccccn3)c2)C(=O)c2ccc(-c3ccc(O)cc3)cc2)CCN(C(=O)OC[C@H]2[C@@H]3CCc4nnn(CCOCCOCCN(Cc5ccc(C(=O)Oc6ccc7nc8c(c(CC)c7c6)Cn6c-8cc7c(c6=O)COC(=O)[C@]7(O)CC)cc5)C(=O)C5(c6ccc(Cl)cc6)CCCCC5)c4CC[C@@H]32)CC1)OCC [conjugate 8]
readout.number: 62000

---

# test.protocol: In vivo pharmacokinetic study, i.v., ICR mice
# Set-up: species or system mouse
# test.conditions: mouse, in vivo, iv; male ICR mice, i.v. 5 mg/kg, n = 3

compound: CCc1c2c(nc3ccc(OC(=O)c4ccc(CN(CCOCCOCCn5nnc6c5CC[C@H]5[C@@H](CC6)[C@@H]5COC(=O)N(C)CCCC(=O)N(CCCCOc5cc(CN(Cc6ccccn6)Cc6ccccn6)cc(CN(Cc6ccccn6)Cc6ccccn6)c5)C5(C(=O)NC(C)(C)C)CCOCC5)C(=O)C5(c6ccc(Cl)cc6)CCCCC5)cc4)cc13)-c1cc3c(c(=O)n1C2)COC(=O)[C@]3(O)CC [conjugate 5]
clearance (mL/min/kg): 50.2

---

# test.protocol: In vivo pharmacokinetic study, i.v., ICR mice
# Design: species or system mouse
# test.conditions: mouse, in vivo, iv; male ICR mice, i.v. 5 mg/kg, n = 3; read-out: Vss
# Vd annotations

compound: CCOP(=O)(CNC(=O)C1(N(CCCCOc2cc(CN(Cc3ccccn3)Cc3ccccn3)cc(CN(Cc3ccccn3)Cc3ccccn3)c2)C(=O)c2ccc(-c3ccc(O)cc3)cc2)CCN(C(=O)OC[C@H]2[C@@H]3CCc4nnn(CCOCCOCCN(Cc5ccc(C(=O)Oc6ccc7nc8c(c(CC)c7c6)Cn6c-8cc7c(c6=O)COC(=O)[C@]7(O)CC)cc5)C(=O)C5(c6ccc(Cl)cc6)CCCCC5)c4CC[C@@H]32)CC1)OCC [conjugate 8]
units.text: L/kg
Vd: 0.1

compound: C/C=C/C(=O)N(CCCCOc1cc(CN(Cc2ccccn2)Cc2ccccn2)cc(CN(Cc2ccccn2)Cc2ccccn2)c1)C1(C(=O)NC(C)(C)C)CCN(C(=O)OC[C@H]2[C@@H]3CCc4nnn(CCOCCOCCN(Cc5ccc(C(=O)Oc6ccc7nc8c(c(CC)c7c6)Cn6c-8cc7c(c6=O)COC(=O)[C@]7(O)CC)cc5)C(=O)C5(c6ccc(Cl)cc6)CCCCC5)c4CC[C@@H]32)CC1 [conjugate 7]
units.text: L/kg
Vd: 3.6

compound: CCc1c2c(nc3ccc(OC(=O)c4ccc(CN(CCOCCOCCn5nnc6c5CC[C@H]5[C@@H](CC6)[C@@H]5COC(=O)N5CCC(C(=O)N(CCCCOc6cc(CN(Cc7ccccn7)Cc7ccccn7)cc(CN(Cc7ccccn7)Cc7ccccn7)c6)C6(C(=O)NC(C)(C)C)CCOCC6)CC5)C(=O)C5(c6ccc(Cl)cc6)CCCCC5)cc4)cc13)-c1cc3c(c(=O)n1C2)COC(=O)[C@]3(O)CC [conjugate 6]
units.text: L/kg
Vd: 4.1

compound: CCc1c2c(nc3ccc(OC(=O)c4ccc(CN(CCOCCOCCn5nnc6c5CC[C@H]5[C@@H](CC6)[C@@H]5COC(=O)N(C)CCCC(=O)N(CCCCOc5cc(CN(Cc6ccccn6)Cc6ccccn6)cc(CN(Cc6ccccn6)Cc6ccccn6)c5)C5(C(=O)NC(C)(C)C)CCOCC5)C(=O)C5(c6ccc(Cl)cc6)CCCCC5)cc4)cc13)-c1cc3c(c(=O)n1C2)COC(=O)[C@]3(O)CC [conjugate 5]
units.text: L/kg
Vd: 18.5

---

# clearance annotations
# test.protocol: In vivo pharmacokinetic study, i.v., ICR mice
# Design: species or system mouse
# test.conditions: mouse, in vivo, iv; male ICR mice, i.v. 5 mg/kg, n = 3

compound: C/C=C/C(=O)N(CCCCOc1cc(CN(Cc2ccccn2)Cc2ccccn2)cc(CN(Cc2ccccn2)Cc2ccccn2)c1)C1(C(=O)NC(C)(C)C)CCN(C(=O)OC[C@H]2[C@@H]3CCc4nnn(CCOCCOCCN(Cc5ccc(C(=O)Oc6ccc7nc8c(c(CC)c7c6)Cn6c-8cc7c(c6=O)COC(=O)[C@]7(O)CC)cc5)C(=O)C5(c6ccc(Cl)cc6)CCCCC5)c4CC[C@@H]32)CC1 [conjugate 7]
clearance: 8.3 mL/min/kg
//
compound: CCOP(=O)(CNC(=O)C1(N(CCCCOc2cc(CN(Cc3ccccn3)Cc3ccccn3)cc(CN(Cc3ccccn3)Cc3ccccn3)c2)C(=O)c2ccc(-c3ccc(O)cc3)cc2)CCN(C(=O)OC[C@H]2[C@@H]3CCc4nnn(CCOCCOCCN(Cc5ccc(C(=O)Oc6ccc7nc8c(c(CC)c7c6)Cn6c-8cc7c(c6=O)COC(=O)[C@]7(O)CC)cc5)C(=O)C5(c6ccc(Cl)cc6)CCCCC5)c4CC[C@@H]32)CC1)OCC [conjugate 8]
clearance: 1.3 mL/min/kg
//
compound: CCc1c2c(nc3ccc(OC(=O)c4ccc(CN(CCOCCOCCn5nnc6c5CC[C@H]5[C@@H](CC6)[C@@H]5COC(=O)N5CCC(C(=O)N(CCCCOc6cc(CN(Cc7ccccn7)Cc7ccccn7)cc(CN(Cc7ccccn7)Cc7ccccn7)c6)C6(C(=O)NC(C)(C)C)CCOCC6)CC5)C(=O)C5(c6ccc(Cl)cc6)CCCCC5)cc4)cc13)-c1cc3c(c(=O)n1C2)COC(=O)[C@]3(O)CC [conjugate 6]
clearance: 13.5 mL/min/kg

---

# test.protocol: In vivo pharmacokinetic study, i.v., ICR mice
# Parameters: species or system mouse
# test.conditions: SN-38 released from the dosed conjugate, 0–24 h, male ICR mice, i.v. 5 mg/kg
# Description: Six-week-old ICR mice, purchased from Biolasco (Taiwan), were divided into groups of three and 100 µl of dosing solution was given intravenously. Through cardiac puncture, blood sample was collected from each sacrificed animal at time points at 0.003, 0.083, 0.25, 0.5, 1, 2, 4, 6, 8, and 24 h and stored on ice (0–4°C). Plasma was separated from the blood by centrifugation at 3,000 rpm for 15 min at 4°C in a Beckman Model Allegra 6R centrifuge. […]
# AUCSN-38 annotations
measure: AUCSN-38 (ng·h/mL)

compound: CCc1c2c(nc3ccc(OC(=O)c4ccc(CN(CCOCCOCCn5nnc6c5CC[C@H]5[C@@H](CC6)[C@@H]5COC(=O)N5CCC(C(=O)N(CCCCOc6cc(CN(Cc7ccccn7)Cc7ccccn7)cc(CN(Cc7ccccn7)Cc7ccccn7)c6)C6(C(=O)NC(C)(C)C)CCOCC6)CC5)C(=O)C5(c6ccc(Cl)cc6)CCCCC5)cc4)cc13)-c1cc3c(c(=O)n1C2)COC(=O)[C@]3(O)CC [conjugate 6]
measure: AUCSN-38
readout.number: 927
--
compound: CCc1c2c(nc3ccc(OC(=O)c4ccc(CN(CCOCCOCCn5nnc6c5CC[C@H]5[C@@H](CC6)[C@@H]5COC(=O)N(C)CCCC(=O)N(CCCCOc5cc(CN(Cc6ccccn6)Cc6ccccn6)cc(CN(Cc6ccccn6)Cc6ccccn6)c5)C5(C(=O)NC(C)(C)C)CCOCC5)C(=O)C5(c6ccc(Cl)cc6)CCCCC5)cc4)cc13)-c1cc3c(c(=O)n1C2)COC(=O)[C@]3(O)CC [conjugate 5]
measure: AUCSN-38
readout.number: 696
